Values compiled from patent US20140315986.

target entity: IL-6 (mature human interleukin-6) (Homo sapiens)
measurement notes: filter
conditions used: all U are Nap-dU
Let's look at some sequences and their measured Kd.
endpoint label: Kd (nM)

{"biosequence": "GGGGUUAUGUAGCGAGUGCGUAAGGCGGUGGGCG [2574-49_10]", "endpoint label": "Kd", "assay result": 1.9}
{"biosequence": "GGGGUUAUGUAGCGAGUGCGUAAGGCGGUGG [2574-49_13]", "endpoint label": "Kd", "assay result": 1.1}
{"biosequence": "GGGGUUAUGUAGCGAGUGCGUAAGGCGGUGGGC [2574-49_11]", "endpoint label": "Kd", "assay result": 1.5}
{"biosequence": "GGGGUUAUGUAGCGAGUGCGUAAGGCGGUGGG [2574-49_12]", "endpoint label": "Kd", "assay result": 1.1}
{"biosequence": "GUUAUGUAGCGAGUGCGUAAGGCGGUGGGCGAGGGA [2574-49_17]", "endpoint label": "Kd", "assay result": 17}
{"biosequence": "GGGGUUAUGUAGCGAGUGCGUAAGGCGGUGGGCGAG [2574-49_8]", "endpoint label": "Kd", "assay result": 1.2}
{"biosequence": "GGGGUUAUGUAGCGAGUGCGUAAGGCGGUGGGCGA [2574-49_9]", "endpoint label": "Kd", "assay result": 1.8}
{"biosequence": "UUAUGUAGCGAGUGCGUAAGGCGGUGGGCGAGGGA [2574-49_18]", "endpoint label": "Kd", "assay result": 19}
{"biosequence": "GGGGUUAUGUAGCGAGUGCGUAAGGCGGUGGGCGAGG [2574-49_7]", "endpoint label": "Kd", "assay result": 2.6}
{"biosequence": "GGGGUUAUGUAGCGAGUGCGUAAGGCGGUGGGCGAGGGA [2574-49_3]", "endpoint label": "Kd", "assay result": 4.1}
{"biosequence": "GGUUAUGUAGCGAGUGCGUAAGGCGGUGGGCGAGGGA [2574-49_16]", "endpoint label": "Kd", "assay result": 3.9}
{"biosequence": "GGGGUUAUGUAGCGAGUGCGUAAGGCGGUG [2574-49_14]", "endpoint label": "Kd", "assay result": 0.7}
{"biosequence": "GGGUUAUGUAGCGAGUGCGUAAGGCGGUGGGCGAGGGA [2574-49_15]", "endpoint label": "Kd", "assay result": 2.1}
{"biosequence": "GGGGUUAUGUAGCGAGUGCGUAAGGCGGUGGGCGAGGG [2574-49_6]", "endpoint label": "Kd", "assay result": 3.5}
